- assay system: DCN1 (DCUND1) protein PONY domain (Homo sapiens (Human), UniProt Q96GG9)
- Sequence (Q96GG9 60-248): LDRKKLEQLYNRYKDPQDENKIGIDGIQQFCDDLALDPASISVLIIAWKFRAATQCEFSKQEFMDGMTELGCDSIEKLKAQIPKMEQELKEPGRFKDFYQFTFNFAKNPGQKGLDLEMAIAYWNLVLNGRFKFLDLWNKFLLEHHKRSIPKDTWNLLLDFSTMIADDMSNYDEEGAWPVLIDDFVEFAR
- assay text: TR-FRET assay, DCN1 binding with FAM-labeled probe
- details: TR FRET IC50 1 hr (nM), 1 hr after treatment with compound
Can you tell me IC50 for the items I'm about to list?

CCN1C(=O)[C@@H](NC(=O)c2ccn(C(F)(F)F)n2)[C@@H](c2ccc(F)cc2)c2c(C(=O)N3CCOC[C@H]3C#N)nn(-c3ccccc3)c21 [Compound I-345]; 200 to 1000 nM

Respectfully, I request IC50 for each entry included below.
1. CCN1C(=O)[C@@H](NC(=O)c2cccc(C(F)(F)F)c2)[C@@H](c2ccc(F)cc2)c2c(CCNC#N)nn(-c3ccccc3)c21 (racemic) [Compound I-10]
2. CCN1C(=O)[C@@H](NC(=O)c2cccc(C(F)(F)F)c2)[C@@H](c2ccc(F)cc2)c2c(C(=O)N(C)CC#N)nn(-c3ccccc3)c21 (racemic) [Compound I-398]
3. CCN1C(=O)[C@@H](NC(=O)c2cccc(C(F)(F)F)c2)[C@@H](c2ccc(F)cc2)c2c(NC(=O)C#CCN3CCOCC3)nn(-c3ccccc3)c21 (racemic) [Compound I-11]
4. CCCn1nc(C(=O)N(CC#N)C2CC2)c2c1N(CC)C(=O)[C@H](NC(=O)c1cccc(C(F)(F)F)c1)[C@@H]2C1CC1 [Compound I-455]
5. CCN1C(=O)[C@@H](NC(=O)c2cccc(C(F)(F)F)c2)[C@@H](c2ccc(F)cc2)c2c(CN(C)C(=O)[C@H](C)Cl)nn(-c3ccccc3)c21 (stereo in doubt) [Compound I-33]
6. CCN1C(=O)[C@@H](NC(=O)c2cccc(C(F)(F)F)c2)[C@@H](c2ccc(F)cc2)c2c(C/C=C/C(=O)NCCO)nn(-c3ccccc3)c21 (racemic) [Compound I-36]
7. CCN1C(=O)[C@@H](NC(=O)c2ccc3cc[nH]c3c2)[C@@H](C2CC2)c2c(C(=O)N3[C@H](C#N)C[C@H]4C[C@H]43)nn(C3CCOCC3)c21 [Compound I-667]
8. CN1C(=O)[C@H](NC(=O)c2cccc(C(F)(F)F)c2)[C@H](C2CC2)c2c(C(=O)N3[C@H](C#N)C[C@H]4C[C@H]43)nn(C3CCOCC3)c21 (relative stereo) [Compound I-528]

Return:
1: 200 to 1000 nM; 2: 1000 to 3000 nM; 3: 200 to 1000 nM; 4: 1000 to 3000 nM; 5: 1000 to 3000 nM; 6: 1000 to 3000 nM; 7: 200 to 1000 nM; 8: 1000 to 3000 nM

Respectfully, I request IC50 for each entry included below.
1. CCN1C(=O)[C@@H](NC(=O)c2cccc(C(F)(F)F)c2)[C@@H](c2ccc(F)cc2)c2c(CNC(=O)/C=C/C(=O)O)nn(-c3ccccc3)c21 (racemic) [Compound I-59]
2. C=C(C(=O)O)c1nn(-c2ccccc2)c2c1[C@H](c1ccc(F)cc1)[C@H](NC(=O)c1cccc(C(F)(F)F)c1)C(=O)N2CC [Compound I-153]

Return:
["1000 to 3000 nM", "200 to 1000 nM"]

* * *

Can you tell me pIC50 for the items I'm about to list?
- System: Cullin-3 (CUL3) neddylation
- assay text: AlphaLISA assay for Cullin-3 (CUL3) neddylation in TF 1 cells
- Format: cell-based
- details: Homo sapiens, TF-1, 3 h, 3 hours treatment
pIC50: −log10 of the molar value.

CCN1C(=O)[C@@H](NC(=O)c2cccc(C(F)(F)F)c2)[C@@H](C2CC2)c2c(C(=O)N(C)[C@@H](C#N)CCN(C)C3COC3)nn(C3CCOCC3)c21; 6.00 to 7.00

Respectfully, I request pIC50 for each entry included below.
1. CCN1C(=O)[C@@H](NC(=O)c2cccc(C(F)(F)F)c2)[C@@H](C2CC2)c2c(C(=O)N3CCOC[C@H]3C#N)nn(-c3ccccc3)c21
2. CCCn1nc(C(=O)N(C)C(C)C#N)c2c1N(CC)C(=O)[C@@H](NC(=O)c1cccc(C(F)(F)F)c1)[C@H]2C1CC1 (some centres unmarked)
3. CCCn1nc(C(=O)N2CCC[C@H]2C#N)c2c1N(CC)C(=O)[C@H](NC(=O)c1cccc(C(F)(F)F)c1)[C@@H]2C1CC1
4. CCN1C(=O)[C@@H](NC(=O)c2nccc(C(F)(F)F)n2)[C@H](c2ccc(F)cc2)c2c(CNC(=O)/C=C/C(=O)N3CCCC3)nn(-c3ccccc3)c21
5. CCN1C(=O)[C@@H](NC(=O)c2cccc(C(F)(F)F)c2)[C@@H](c2ccc(F)cc2)c2c(C(=O)N3CCC[C@H]3C#N)nn(C3CCOCC3)c21 (mixture of isomers)
6. CCN1C(=O)[C@@H](NC(=O)c2cccc(C(F)(F)F)c2)[C@@H](c2ccc(F)cc2)c2c(C(=O)N(CC#N)C3CC3)nn(C3CC3)c21
7. C=C(CN1CC(C)(O)C1)C(=O)NCc1nn(-c2ccccc2)c2c1[C@H](c1ccc(F)cc1)[C@H](NC(=O)c1cccc(C(F)(F)F)c1)C(=O)N2CC

Return:
1: ≥ 7.00; 2: ≥ 7.00; 3: < 6.00; 4: < 6.00; 5: ≥ 7.00; 6: ≥ 7.00; 7: ≥ 7.00

* * *

- assay system: DCN1 (DCUND1) protein PONY domain (Homo sapiens (Human), UniProt Q96GG9)
- assay text: TR-FRET assay, DCN1 binding with FAM-labeled probe
- details: read-out: TR FRET IC50 1 hr; 1 hr after treatment with compound
measure: IC50

C=C(CN1CCCC1)C(=O)NCc1nn(-c2ccccc2)c2c1[C@H](c1ccc(F)cc1)[C@H](NC(=O)c1cccc(C(F)(F)F)c1)C(=O)N2CC; ≤ 0.2 µM

Respectfully, I request IC50 for each entry included below.
1. CCN1C(=O)[C@@H](NC(=O)c2cccc(C(F)(F)F)c2)[C@@H](c2ccc(F)cc2)c2c(CN(C#N)CCCN(C)C3COC3)nn(-c3ccccc3)c21
2. CCN1C(=O)[C@@H](NC(=O)c2cccc(C(F)(F)F)c2)[C@@H](c2ccc(F)cc2)c2c(C(=O)N3CC[C@H](OC)[C@H]3C#N)nn(C3CCOCC3)c21

Return:
≤ 0.2 µM
≤ 0.2 µM

* * *

- Tested on: Cullin-3 (CUL3) neddylation
- assay text: AlphaLISA assay for Cullin-3 (CUL3) neddylation in TF 1 cells
- Assay type: cell-based
- details: Homo sapiens, TF-1, 3 h, 3 hours treatment
Can you tell me IC50 for the items I'm about to list?

Before answering, review these 5 worked examples.
CCN1C(=O)[C@@H](NC(=O)[C@@H]2CCc3nccc(=O)n32)[C@@H](C2CC2)c2c(C(=O)N3[C@H](C#N)C[C@H]4C[C@H]43)nn(C3CCOCC3)c21; > 1000 nM
CCN1C(=O)[C@@H](NC(=O)c2nccc(C(F)(F)F)n2)[C@@H](c2ccc(F)cc2)c2c(CNC(=O)/C=C/C(=O)OC(C)(C)C)nn(-c3ccccc3)c21; 100 to 1000 nM
CCN1C(=O)[C@@H](NC(=O)c2cccc(C(F)(F)F)c2)[C@@H](C2CC2)c2c(C(=O)N3CCOC[C@@H]3C#N)nn(C3CCOCC3)c21; 100 to 1000 nM
CCCn1nc(C(=O)N2[C@H](C#N)C[C@H]3C[C@H]32)c2c1N(CC)C(=O)[C@@H](NC(=O)c1cccc(C(F)(F)F)c1)[C@H]2c1ccc(F)cc1; ≤ 100 nM
CCN1C(=O)[C@@H](NC(=O)c2cccc(C(F)(F)F)c2)[C@@H](C2CC2)c2c(C(=O)N(CC#N)C3CC3)nn(C3CCOCC3)c21; ≤ 100 nM

Respectfully, I request IC50 for each entry included below.
1. CCN1C(=O)[C@H](NC(=O)c2cccc(C(F)(F)F)c2)[C@H](c2ccc(C)cc2)c2c(C(=O)N(C)CC#N)nn(C3CC3)c21
2. C=C(CN1CCOCC1)C(=O)NCc1nn(-c2ccccc2)c2c1[C@H](c1ccc(F)cc1)[C@H](NC(=O)c1cccc(C(F)(F)F)c1)C(=O)N2CC (racemic)
3. CCN1C(=O)[C@H](NC(=O)c2cccc(C(F)(F)F)c2)[C@H](c2ccc(F)cc2)c2c(C(=O)N3CCNC[C@H]3C#N)nn(-c3ccccc3)c21
4. CCN1C(=O)[C@H](NC(=O)c2cccc(C(F)(F)F)c2)[C@H](c2ccc(F)cc2)c2c([C@H](C)NC#N)nn(-c3ccccc3)c21
5. CCN1C(=O)[C@@H](NC(=O)c2cccc(C(F)(F)F)c2)[C@@H](C2CC2)c2c(C(=O)N3CCC[C@H]3C#N)nn(C3CCOCC3)c21
6. CCN1C(=O)[C@@H](NC(=O)c2cccc(C(F)(F)F)c2)[C@@H](c2ccc(F)cc2)c2c(C(=O)N3C[C@H](F)C[C@H]3C#N)nn(-c3ccccc3)c21 (mixture of isomers)

Return:
["> 1000 nM", "100 to 1000 nM", "> 1000 nM", "100 to 1000 nM", "≤ 100 nM", "≤ 100 nM"]
